Origin of measurements: ChEMBL document CHEMBL1131035

Catalogue of CC50 values
testSummary: Toxic concentration on HRV-14 infected H1- HeLa cells by protection assay.
Type: toxicity, cell-based
conditionParameters: human, H1-HeLa cells infected with HRV-14; read-out: TC50 (the source's name)
Structures can show the parent of a compound that is named as a salt. Non-standard residues stand in square brackets, D forms with d. Residues, ends and D or L forms follow the SMILES beside them. *: point of attachment. Cbz = O=C(OCc1ccccc1)*; Dap = NC[C@H](N)C(=O)O; Tfa = O=C(C(F)(F)F)*; Ms = CS(=O)(=O)*
Give the quantity in µM, number only.

For record CC(C)C[C@H](NC(=O)OCc1ccccc1)C(=O)N[C@@H](Cc1ccccc1)C(=O)N[C@H](C=O)CNC(=O)C(F)(F)F (Cbz-Leu-Phe-[Dap](Tfa)-aldehyde) the listed CC50 is 25

---
For record CC(C)C[C@H](NC(=O)OCc1ccccc1)C(=O)N[C@@H](Cc1ccccc1)C(=O)N[C@H](C=O)CNS(C)(=O)=O (Cbz-Leu-Phe-[Dap](Ms)-aldehyde) the listed CC50 is 63

---

Tested on: HeLa
testSummary: Effective concentration was measured on HRV-89 infected H1- HeLa cells by protection assay.
Assay type: functional, cell-based
conditionParameters: Homo sapiens
Non-standard residues stand in square brackets, D forms with d. Residues, ends and D or L forms follow the SMILES beside them. *: point of attachment. Cbz = O=C(OCc1ccccc1)*; Dap = NC[C@H](N)C(=O)O
valueType: EC50 (µM)
Give the quantity in µM, number only.

For record CC(=O)NC[C@@H](C=O)NC(=O)[C@H](Cc1ccccc1)NC(=O)[C@H](CC(C)C)NC(=O)OCc1ccccc1 (Cbz-Leu-Phe-[Dap](Ac)-aldehyde) the listed EC50 is 2.2

---

testSummary: Therapeutic Index against HRV-14 virus infection
Assay type: organism-based
conditionParameters: rhinovirus b14, H1-HeLa cells; read-out: TI
Where a name gives a salt, the structure may show the parent alone. Starred links: 1 amine or outer side, 2 acyl side, 3 side chain; linkers in the order of their positions; H or OH if unused. Non-standard residues stand in square brackets, D forms with d. Residues, ends and D or L forms follow the SMILES beside them. Groups on a side chain read outwards from the residue. *: point of attachment. Isobutyryl = CC(C)C(=O)*; Cbz = O=C(OCc1ccccc1)*; Dap = NC[C@H](N)C(=O)O; Boc = CC(C)(C)OC(=O)*; CO = O=C([*:1])[*:2]; Tfa = O=C(C(F)(F)F)*; Bz = O=C(c1ccccc1)*; Ms = CS(=O)(=O)*; Moc = COC(=O)*; For = O=C*
valueType: selectivity ratio
API note: the answer field is a bare number with no unit suffix.

For record CC(C)C[C@H](NC(=O)OCc1ccccc1)C(=O)N[C@@H](Cc1ccccc1)C(=O)N[C@H](C=O)CNC(=O)C(F)(F)F (Cbz-Leu-Phe-[Dap](Tfa)-aldehyde) the listed selectivity ratio is 14

For record CC(C)C[C@H](NC(=O)OCc1ccccc1)C(=O)N[C@@H](Cc1ccccc1)C(=O)N[C@H](C=O)CCC(=O)N(C)C (Cbz-Leu-Phe-Glu(NMe2)-aldehyde) the listed selectivity ratio is 48

---
For record CC(C)C[C@H](NC(=O)OCc1ccccc1)C(=O)N[C@@H](Cc1ccccc1)C(=O)N[C@H](C=O)CNC(=O)C(C)C (Cbz-Leu-Phe-[Dap](Isobutyryl)-aldehyde) the listed selectivity ratio is 5

For record CC(C)C[C@H](NC(=O)OCc1ccccc1)C(=O)N[C@@H](Cc1ccccc1)C(=O)N[C@H](C=O)CNC(=O)c1ccccc1 (Cbz-Leu-Phe-[Dap](Bz)-aldehyde) the listed selectivity ratio is 51

For record CC(C)C[C@H](NC(=O)OCc1ccccc1)C(=O)N[C@@H](Cc1ccccc1)C(=O)N[C@H](C=O)CNC(=O)OC(C)(C)C (Cbz-Leu-Phe-[Dap](Boc)-aldehyde) the listed selectivity ratio is 28

For record CC(C)C[C@H](NC(=O)OCc1ccccc1)C(=O)N[C@@H](Cc1ccccc1)C(=O)N[C@H](C=O)CNC(=O)N(C)C (Cbz-Leu-Phe-[Dap]([CO-NMe2])-aldehyde) the listed selectivity ratio is 47

For record "CC(C)C[C@H](NC(=O)OCc1ccccc1)C(=O)N[C@@H](Cc1ccccc1)C(=O)N[C@H](C=O)CCC#N" the listed selectivity ratio is 4

For record CC(C)C[C@H](NC(=O)OCc1ccccc1)C(=O)N[C@@H](Cc1ccccc1)C(=O)N[C@H](C=O)CNC=O (Cbz-Leu-Phe-[Dap](For)-aldehyde) the listed selectivity ratio is 129

For record "CC(C)C[C@H](NC(=O)OCc1ccccc1)C(=O)N[C@@H](Cc1ccccc1)C(=O)N[C@H](C=O)CNC(=O)c1ccno1" the listed selectivity ratio is 40

For record "CC(=O)N(C)C[C@@H](C=O)NC(=O)[C@H](Cc1ccccc1)NC(=O)[C@H](CC(C)C)NC(=O)OCc1ccccc1" the listed selectivity ratio is 19

For record CC(=O)NC[C@@H](C=O)NC(=O)[C@H](Cc1ccccc1)NC(=O)[C@H](CC(C)C)NC(=O)OCc1ccccc1 (Cbz-Leu-Phe-[Dap](Ac)-aldehyde) the listed selectivity ratio is 132

For record CC(C)C[C@H](NC(=O)OCc1ccccc1)C(=O)N[C@@H](Cc1ccccc1)C(=O)N[C@H](C=O)CNS(C)(=O)=O (Cbz-Leu-Phe-[Dap](Ms)-aldehyde) the listed selectivity ratio is 3

For record CC(C)C[C@H](NC(=O)OCc1ccccc1)C(=O)N[C@@H](Cc1ccccc1)C(=O)N[C@H](C=O)CCC(N)=O (Cbz-Leu-Phe-Gln-aldehyde) the listed selectivity ratio is 6

For record COC(=O)NC[C@@H](C=O)NC(=O)[C@H](Cc1ccccc1)NC(=O)[C@H](CC(C)C)NC(=O)OCc1ccccc1 (Cbz-Leu-Phe-[Dap](Moc)-aldehyde) the listed selectivity ratio is 11
